Here, each record is paired with measured MIC data.
Test system: S. aureus ATCC25923
Protocol Notes: Antimicrobial broth micro-dilution assay (MIC)
Assay type: cell-based
Test Context: Staphylococcus aureus; S. aureus ATCC25923; 24 h at 37 °C; highest tested concentration 250 µg/mL; read-out: Minimum inhibitory concentration (MIC)
# include the unit after the value

{"Compound String": "COC(=O)C1=C(C)C(=O)C(O)=C(C)C1=O", "MIC": "62.5 µg/mL"}

Q) Request the reported MIC associated with C#CCCCOC(=O)C1=C(C)C(=O)C(O)=C(C)C1=O
A) 31.2 µg/mL

Q) For CCCCOC(=O)C1=C(C)C(=O)C(O)=C(C)C1=O , what is its reported MIC?
A) 31.2 µg/mL

Q) Which MIC value is on record for C#CCCOC(=O)C1=C(C)C(=O)C(O)=C(C)C1=O ?
A) 62.5 µg/mL

Q) Which MIC value is on record for C=CCCCOC(=O)C1=C(C)C(=O)C(O)=C(C)C1=O ?
A) 62.5 µg/mL

Q) Please report the recorded MIC for CCCOC(=O)C1=C(C)C(=O)C(O)=C(C)C1=O .
A) 62.5 µg/mL

---

Test system: S. aureus MRSA
Protocol Notes: Antimicrobial broth micro-dilution assay (MIC)
Type: cell-based
Test Context: Staphylococcus aureus; S. aureus MRSA; 24 h at 37 °C; highest tested concentration 250 µg/mL; read-out: Minimum inhibitory concentration (MIC)
Listing of entries alongside the reported MIC.
Lab book: enter the figure in µg/mL, no units written.

{"Compound": "CC1=C(O)C(=O)C(C)=C(C(=O)OCCCC(C)C)C1=O [compound 36]", "Units": "µg/mL", "MIC": 31.2}
{"Compound": "CCCCCCOC(=O)C1=C(C)C(=O)C(O)=C(C)C1=O [compound 35]", "Units": "µg/mL", "MIC": 31.2}
{"Compound": "CCCCCOC(=O)C1=C(C)C(=O)C(O)=C(C)C1=O [compound 33]", "Units": "µg/mL", "MIC": 15.6}
{"Compound": "CC1=C(O)C(=O)C(C)=C(C(=O)OCC(C)C)C1=O [compound 32]", "Units": "µg/mL", "MIC": 31.2}
{"Compound": "CCOC(=O)C1=C(C)C(=O)C(O)=C(C)C1=O [compound 29]", "Units": "µg/mL", "MIC": 62.5}
{"Compound": "C=CCCOC(=O)C1=C(C)C(=O)C(O)=C(C)C1=O [compound 37]", "Units": "µg/mL", "MIC": 31.2}
{"Compound": "CCCOC(=O)C1=C(C)C(=O)C(O)=C(C)C1=O [compound 30]", "Units": "µg/mL", "MIC": 62.5}
{"Compound": "CCCCOC(=O)C1=C(C)C(=O)C(O)=C(C)C1=O [compound 31]", "Units": "µg/mL", "MIC": 31.2}
{"Compound": "C#CCCCOC(=O)C1=C(C)C(=O)C(O)=C(C)C1=O [compound 40]", "Units": "µg/mL", "MIC": 62.5}
{"Compound": "C/C=C/C=C/C(=O)C1=C(C)C(=O)C(O)=C(C)C1=O [compound 7, sorrentanone]", "Units": "µg/mL", "MIC": 31.2}

Q) Look up MIC: CC1=C(O)C(=O)C(C)=C(C(=O)OCc2ccccc2)C1=O [compound 41]
A) 15.6

Q) Sample CC1=C(O)C(=O)C(C)=C(C(=O)OCCC(C)C)C1=O [compound 34] — what was its MIC?
A) 15.6

Q) Given the compound C=CCCCOC(=O)C1=C(C)C(=O)C(O)=C(C)C1=O [compound 39] , what is its reported MIC?
A) 62.5

Q) Any idea what MIC was measured for C#CCCOC(=O)C1=C(C)C(=O)C(O)=C(C)C1=O [compound 38] ?
A) 31.2

Q) Suppose we examine the compound COC(=O)C1=C(C)C(=O)C(O)=C(C)C1=O [compound 28] ; what MIC value has been reported?
A) 31.2
